Structures can show the parent of a compound that is named as a salt.
Each item that follows carries a reported melting point.

CS(=O)(=O)Nc1ccccc1C1CCN(C(=O)[C@@H](Cc2ccc(Cl)c(Cl)c2)NC(=O)[C@@H]2Cc3ccccc3CN2)CC1 (as salt: HCl) | 181 °C (dec.)
Cl.O=C(N[C@H](Cc1ccc(Cl)cc1)C(=O)N1CCC(c2ccccc2-n2cc[nH]c2=O)CC1)[C@@H]1Cc2ccccc2CN1 | 191 °C (dec.)
CS(=O)(=O)N(CC1CC1)c1ccccc1C1CCN(C(=O)[C@@H](Cc2ccc(Cl)cc2)NC(=O)[C@@H]2Cc3ccccc3CN2)CC1 (as salt: HCl) (hydrate or solvate) | 190 to 200 °C

### Prompt Please look up its melting point: Cn1ccn(-c2ccccc2C2CCN(C(=O)[C@@H](Cc3ccc(Cl)cc3)NC(=O)[C@@H]3Cc4ccccc4CN3)CC2)c1=O (as salt: HCl)
### Response 178 °C (dec.)
